# Test Name: viability of HCT116 without oncogenic beta-catenin – human colon tumor cells, pilot screen (AID 823);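 also: 0% = wells killed by 20 µM Hyamine and 100% = untreated DMSO cell wells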
# Particulars: HCT116 beta-catenin knockout viability, CellTiter-Glo, 60 h; at 10 µM; stronger effect = lower value
Inconclusive results are not listed.
viability strictly under 90% means True; at 90% or over means False.

Below 90% on viability? Entry O=C(CC1Oc2ccccc2NC1=O)NCCc1ccccc1 (stereo unspecified) False

Same question, COc1cc(OC)c2c(c1)OC(c1ccc(OC)c(OC)c1)C(O)C2=O (stereo unspecified) this time False

Also O=C(NC(Cc1ccc2c(c1)OCO2)C(=O)N1CCCC1C(=O)O)c1ccccc1 (stereo unspecified) ? False

Next compound up: `COc1ccc(-c2nc3c(n2O)CCC/C3=N\O)cc1` False

For COC(=O)C1C2C=CC3(CN(c4cccc(Cl)c4)C(=O)C13)O2 (stereo unspecified) then? False

What would you report for `Cc1ccc(NC(=O)c2cc(-c3ccc(C)o3)nc3ccccc23)nc1` ? True

---

Would you mind telling me the reported inhibition of each entry?
# Test Name: RAM pathway blockade in budding yeast – dse1pr::URA3 reporter, 5-FOA selection, pilot screen (AID 869);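 also: 0% = DMSO wells with no growth and 100% = 10 µM 1-NA-PP1 with full growth; RAM network block rescues cells from 5-FOA so hits raise OD615 growth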
# Particulars: S. cerevisiae dse1pr::URA3 5-FOA growth, OD615, 2 d; at 10 µM; stronger effect = higher value; strain carries analog-sensitive mutant Cbk1 kinase
State just the number; it will be interpreted in %.

If you can, please state the reported inhibition value of COc1ccc(C2C(C(=O)Nc3cccnc3)=C(C)Nc3nc(-c4cccs4)nn32)cc1OC (stereo not drawn) . -0.09

Quick one: CC(C(=O)Oc1ccc2c(c1)OCO2)N1C(=O)c2ccccc2C1=O (stereo not drawn) 1.38

// next record `CCn1cc(C(=O)NCCCOC)c(=O)c2cc(S(=O)(=O)N(C)C)ccc21` 0.395

Repeat with `CCOC(=O)C1CCN(Cc2ccc(F)c(Br)c2)CC1` 2.35

And the next one, CCN=C(Nc1ccc2c(c1)OCO2)SC1CC(=O)N(c2ccccc2F)C1=O (stereo not drawn) ? 3.15

Here is the next compound: `COC(=O)COC(=O)c1ccc(O)cc1` 2.5

// next record `Cc1ccc(C)c(N2CCN(C(=O)c3cc4ccccn4n3)CC2)c1` 0.805

// next record CSCCC(N=CC1=C(O)CC(C)(C)CC1=O)C(=O)O (stereo not drawn) 0.65

How about this compound: `CC(=O)Oc1ccc(C(=O)Nc2nnc(C)s2)cc1` 2.9

Now the compound CCC1Oc2ccccc2N(CC(=O)NCCCN2CCOCC2)C1=O (stereo not drawn) 1.29

Also, `CN(C)c1ccc(C(=O)Nc2nnc(-c3ccc(Cl)cc3)o2)cc1` please. 1.5

Same question for `O=C(NCc1ccc(F)cc1)c1cc2ccccn2n1` please. 0.47

Same question for `O=C(c1ccc(=O)[nH]c1)N(Cc1ccco1)C1(C(=O)NC2CCCC2)CCCCC1` please. -0.16

Continue with `CCOc1ccc2nc(Nc3nc4c(c(=O)[nH]3)CCC4)nc(C)c2c1` 1.01

Further, for `CC1(C)Cc2c(sc3c2c(=N)n(Cc2ccco2)c(=O)n3Cc2ccc(Cl)cc2)CO1` ? 1.69

And then `Cn1ccnc1SCC(=O)Nc1ccc2ccccc2c1` , what is it? 1.69

Query `Nc1cccc2c1C(=O)N(c1ccccc1)C2=O` next 1.5

What would you report for `COc1cccc(-c2nc(CS(=O)(=O)CC(=O)N3CCc4ccccc4C3)c(C)o2)c1` ? 1.68

Moving on to the next compound: O=C1CC(c2cccnc2)c2cc3c(cc2N1)OCCO3 (stereo not drawn) 2.35

// same read-out, input: `Cc1cccc(NC(=O)CS(=O)(=O)c2cn(C)c3ccccc23)c1` 1.98

Cool, now `C=CCn1c(=O)n(CCOC)c(=O)c2sc3ccccc3c21` 0.25

Record: `O=c1cc(N2CCN(c3ccccc3)CC2)[nH]c(=O)n1Cc1ccc(F)cc1` 2.68

Lookup `CC(C)(C)SCCNC(=O)COc1ccccc1` 1.81

---

# Test Name: MRP1 drug-resistance reversers in H69AR cells – cell-based, doxorubicin co-treatment, pilot screen (AID 601)
# Particulars: H69AR cells, CellTiter-Glo, 72 h; compound alone cytotoxicity; at 10 µM
Would you mind telling me the reported viability of each entry?
Expressed in %, but write only the number.

What viability value was documented for this compound, COc1cccc(C2=NOC(C(=O)N3CCN(c4ccccc4)CC3)C2)c1OC (stereo not given) ? 86.5

Now the compound `COc1ccc(CNC(=O)c2nnn(Cc3ccc(OC)cc3)c2N)cc1` 86.5

Consider next the compound `CCOc1cccc(-c2nnc3n2N=C(c2cc(OC)ccc2OC)CS3)c1` in the same way. 13.5

Proceed to `O=C(c1ccc2nc(N3CCCCC3)sc2c1)N1CCN(c2ccccn2)CC1` 102

Okay, and CC1=C(C(=O)OC(C)C)C(c2cccc(F)c2)n2ncnc2N1 (stereo not given) ? 90.7

Next compound up: CCOc1cccc(C(=O)N2CCCCC2c2cccnc2)c1 (stereo not given) 110

Entry to check: `COc1ccc(OC)c(C(=O)c2ccc(C(=O)O)cc2)c1` 103

Queued: `CCN1CCN(c2nc(C)nc3c2sc(=S)n3C)CC1` 90

Same for `O=S(=O)(c1ccccc1)N1CCN(S(=O)(=O)c2ccccc2)C1` 95.8

Same question for `Cc1noc(C)c1CSc1ccccc1C(=O)N1CCN(c2ccccc2)CC1` please. 82

Repeat with O=C1NC2(Nc3ccccc31)C(=O)Nc1ccccc12 (stereo not given) 156

Field entry: CCCSC1=C(C#N)C(c2cc(OC)ccc2OC)CC(=O)N1 (stereo not given) 89.1

Now consider `N#C/C(C(=O)N1CCOCC1)=C1/SC=C(c2ccccc2)N1c1ccccc1` and answer again. 96.1

And then `COC(=O)c1cn(NC(=O)c2cccnc2)c(=O)c2ccccc12` , what is it? 103

Follow-up entry: `COc1ccc(C/C(N)=N/n2cnnc2)cc1Cl` 102

What do you have for `CCCSc1nc2c(cnn2-c2ccc(C)cc2)c(=O)[nH]1` ? 19.1

Then this compound: CCOC(=O)C1=C(C)N(C)C(=O)NC1c1cccc(O)c1 (stereo not given) 86.9

Try `Cc1ccc(-c2cc(C(F)F)nc(N3CCC(C)CC3)n2)cc1` next. 91.1

Now try `Clc1ss/c(=N\c2ccccn2)c1Cl` . 76.6

What do you get for `COc1ccccc1N1CCN(C(=O)C2CCN(S(=O)(=O)c3ccc(F)cc3)CC2)CC1` ? 87.5

How about `Cc1ccc(Cn2c(=O)c3ccccc3n3c(CCC(=O)O)nnc23)cc1` ? 98.9

For Cc1ccnc(NC(=O)C2CCC(CNc3c(N4CCCC4)c(=O)c3=O)CC2)c1 (stereo not given) then? 90.2

Again, but for `Cc1cc(C)c2c(=O)n(CC(=O)NCCCN3CCN(c4ccccc4F)CC3)sc2n1` 3.21

Next: `CCC(=O)c1cc(F)c(N2CCN(C(=O)c3ccco3)CC2)cc1C` 87.9

Another: `CCOC(=O)N1CCC(NC(=O)C2CCN(S(=O)(=O)c3cccc4cccnc34)CC2)CC1` 94.8

Similarly, CCN1CCN(C(=O)C2CC(c3ccc(F)cc3)=NO2)CC1 (stereo not given) ? 99.1

Also need `CCN(CC)C(=O)Cn1ncc2c1-c1ccccc1OC2` , thanks. 100

What do you get for `COc1cccc2cc(C(=O)N3CCN(c4ccc(C)cc4C)CC3)c(=O)oc12` ? 96.5

Subsequent entry: `CCN1CCN(c2nc3c(c(=O)[nH]c(=O)n3C)n2CCSc2nc3ccccc3s2)CC1` 88.6

Same again, this time with `Cc1ccc(N=Cc2ccc[nH]2)c(O)c1` 81.9

Would you kindly repeat that for CCN(CC)CCCN1C(=O)C(O)=C(C(=O)c2ccco2)C1c1ccc(C)o1 (stereo not given) ? 85.4

Continue with `CCOC(=O)c1ccc(-n2c(C)nc3c(cnn3-c3ccccc3C)c2=O)cc1` 98.1

Another compound: `CCc1cc2c(=O)c(-c3nc4ccccc4[nH]3)coc2c(CN2CCC(C)CC2)c1O` 82.6

Item: O=C(Nn1cnnc1)C1Cc2ccccc2CN1S(=O)(=O)c1ccc(F)cc1 (stereo not given) 97.2

Next up: Cc1[nH]nc2c1C(C1CC=CCC1)C(C#N)=C(N)O2 (stereo not given) 96

Also CCOC(=O)C(C(=O)OCC)C(C)C#CCN1CCCCC1 (stereo not given) , if possible. 90.4

And O=C1CC(c2ccco2)CC(O)=C1C=NCCN1CCNCC1 (stereo not given) ? 95.6

// query: `COc1ccc(N2CCN(C(=O)CSc3ccccc3)CC2)cc1` 95.5

Param item: `CCOCCCNC(=O)CN1CCN(Cc2ccccc2C)C1=O` 97

Likewise for Cc1cccc(N2C(=O)CC(N3CCN(c4cccc(C(F)(F)F)c4)CC3)C2=O)c1 (stereo not given) ? 96.9

Next up: `CCN(C(=O)c1cc(Cl)ccc1OC)c1ccccc1` 103

Next up: Cc1ccc(-n2c3c(cc(C(=O)NC4CCSC4=O)c2=O)C(=O)CC(C)(C)C3)cc1 (stereo not given) 85.3

What about this compound? `Cc1c(-n2c(CN3C(=O)c4ccccc4C3=O)nc3ccccc3c2=O)c(=O)n(-c2ccccc2)n1C` 101

Consider next the compound `O=C(c1ccc(=O)[nH]c1)N(Cc1ccco1)C1(C(=O)NC2CCCC2)CCCCC1` in the same way. 104

Next: `COc1cccc(-c2cc(C(F)(F)F)nc(NCc3ccco3)n2)c1` 95.8
